target: T1, E. coli β clamp (β subunit of DNA polymerase III, dnaN gene product) (E. coli, UniProt P0A988 1-366); assay: SPR competition, β ring on immobilised P1
T1 construct: Expressed in BL21 E. coli from pET15b with an N-terminal tag; also called β ring; β protein; not shown: N-terminal tag from plasmid pET15b ('N-tagged protein', purified on Ni-NTA)
T1 sequence (P0A988 whole entry): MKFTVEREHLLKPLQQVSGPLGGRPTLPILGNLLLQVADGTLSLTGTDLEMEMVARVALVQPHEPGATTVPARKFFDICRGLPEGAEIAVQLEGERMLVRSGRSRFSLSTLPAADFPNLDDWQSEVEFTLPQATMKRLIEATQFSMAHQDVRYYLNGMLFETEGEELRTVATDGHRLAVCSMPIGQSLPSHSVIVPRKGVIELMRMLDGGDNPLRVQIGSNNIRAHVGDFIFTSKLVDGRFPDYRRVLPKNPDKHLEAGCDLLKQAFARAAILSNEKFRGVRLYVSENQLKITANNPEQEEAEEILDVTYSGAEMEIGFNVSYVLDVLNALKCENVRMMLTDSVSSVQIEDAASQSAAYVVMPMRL
Square brackets hold non-standard residues; d marks the D form. Phe(4-Cl) = N[C@@H](Cc1ccc(Cl)cc1)C(=O)O; Phe(4-Me) = Cc1ccc(C[C@H](N)C(=O)O)cc1; Cha = N[C@@H](CC1CCCCC1)C(=O)O
test.readout: IC50 (nM)
Dear colleague, please return just the value in nM, with no unit written.

// field: IC50; key: H-RQLVLGL-OH (Free peptide in ITC; also called H-Arg-Gln-Leu-Val-Leu-Gly-Leu-OH) [P1, natural C-terminal heptapeptide of E. coli DNA polymerase IV (RQLVLGL)] ; value = 8850

// field: IC50; key: Ac-Q[Cha]DL[Phe(4-Me)]-OH (SMILES CC(=O)N[C@@H](CCC(N)=O)C(=O)N[C@@H](CC1CCCCC1)C(=O)N[C@@H](CC(=O)O)C(=O)N[C@@H](CC(C)C)C(=O)N[C@@H](Cc1ccc(C)cc1)C(=O)O, also called AcQChaDLpMeF; Ac-Q Cha DL pMeF) [P11 (Ac-Gln-Cha-Asp-Leu-pMePhe-OH)] ; value = 260

// field: IC50; key: Ac-Q[Cha]DL[Phe(4-Cl)]-OH (SMILES CC(=O)N[C@@H](CCC(N)=O)C(=O)N[C@@H](CC1CCCCC1)C(=O)N[C@@H](CC(=O)O)C(=O)N[C@@H](CC(C)C)C(=O)N[C@@H](Cc1ccc(Cl)cc1)C(=O)O, also called AcQChaDLpClF; Ac-Q Cha DL pClF) [P12 (Ac-Gln-Cha-Asp-Leu-pClPhe-OH)] ; value = 160
